The entries below come with measured protein stability index values attached.
B1: KLHL12 (parent)
chain: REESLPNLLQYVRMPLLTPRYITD

- Variants of: B1
- assay-overview: protein stability index of a GFP-peptide fusion (GPS, HEK-293T) (PSI 1-6); higher = more stable;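 also: lentivirally expressed fusions sorted by FACS into six bins by GFP to DsRed ratio, PSI derived from sequencing read proportions per bin multiplied by bin number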
- condition-notes: c terminus: a fixed tail appended
experimental-readout: protein stability index

- variant-id: "I22N"
  experimental-readout: "protein stability index"
  reported-measurement: 2.71
- variant-id: "P19H"
  experimental-readout: "protein stability index"
  reported-measurement: 1.47
- variant-id: "I22G"
  experimental-readout: "protein stability index"
  reported-measurement: 2.4
- variant-id: "R13A"
  experimental-readout: "protein stability index"
  reported-measurement: 1.49
- variant-id: "P15N"
  experimental-readout: "protein stability index"
  reported-measurement: 2.42
- variant-id: "Y21L"
  experimental-readout: "protein stability index"
  reported-measurement: 2.62
- variant-id: "T18E"
  experimental-readout: "protein stability index"
  reported-measurement: 2.87
- variant-id: "R1V"
  experimental-readout: "protein stability index"
  reported-measurement: 2.35
- variant-id: "T23K"
  experimental-readout: "protein stability index"
  reported-measurement: 3.35
- variant-id: "S4Q"
  experimental-readout: "protein stability index"
  reported-measurement: 2.51
- variant-id: "S4N"
  experimental-readout: "protein stability index"
  reported-measurement: 1.93
- variant-id: "P19T"
  experimental-readout: "protein stability index"
  reported-measurement: 2.46
- variant-id: "L5W"
  experimental-readout: "protein stability index"
  reported-measurement: 2.21
- variant-id: "P15V"
  experimental-readout: "protein stability index"
  reported-measurement: 2.34
- variant-id: "D24H"
  experimental-readout: "protein stability index"
  reported-measurement: 2.06
- variant-id: "L16F"
  experimental-readout: "protein stability index"
  reported-measurement: 2.27
- variant-id: "Y21Q"
  experimental-readout: "protein stability index"
  reported-measurement: 3.85
- variant-id: "L5M"
  experimental-readout: "protein stability index"
  reported-measurement: 2.9
- variant-id: "Y11H"
  experimental-readout: "protein stability index"
  reported-measurement: 2.88
- variant-id: "D24F"
  experimental-readout: "protein stability index"
  reported-measurement: 2.04
- variant-id: "V12W"
  experimental-readout: "protein stability index"
  reported-measurement: 1.81
- variant-id: "D24Q"
  experimental-readout: "protein stability index"
  reported-measurement: 2.5
- variant-id: "D24K"
  experimental-readout: "protein stability index"
  reported-measurement: 2.64
- variant-id: "L8G"
  experimental-readout: "protein stability index"
  reported-measurement: 2.79
- variant-id: "N7P"
  experimental-readout: "protein stability index"
  reported-measurement: 3.19
- variant-id: "P19A"
  experimental-readout: "protein stability index"
  reported-measurement: 2.74
- variant-id: "Y11A"
  experimental-readout: "protein stability index"
  reported-measurement: 2.76
- variant-id: "D24V"
  experimental-readout: "protein stability index"
  reported-measurement: 1.57
- variant-id: "D24P"
  experimental-readout: "protein stability index"
  reported-measurement: 2.04
- variant-id: "V12S"
  experimental-readout: "protein stability index"
  reported-measurement: 3.16
- variant-id: "M14T"
  experimental-readout: "protein stability index"
  reported-measurement: 2.97
- variant-id: "P15S"
  experimental-readout: "protein stability index"
  reported-measurement: 3.06
- variant-id: "L8K"
  experimental-readout: "protein stability index"
  reported-measurement: 2.98
- variant-id: "I22F"
  experimental-readout: "protein stability index"
  reported-measurement: 1.93
- variant-id: "R13Q"
  experimental-readout: "protein stability index"
  reported-measurement: 2.31
- variant-id: "E2Q"
  experimental-readout: "protein stability index"
  reported-measurement: 2.53
- variant-id: "P6R"
  experimental-readout: "protein stability index"
  reported-measurement: 2.59
- variant-id: "D24L"
  experimental-readout: "protein stability index"
  reported-measurement: 1.71
- variant-id: "I22H"
  experimental-readout: "protein stability index"
  reported-measurement: 2.86
- variant-id: "P15M"
  experimental-readout: "protein stability index"
  reported-measurement: 2.48
- variant-id: "P19V"
  experimental-readout: "protein stability index"
  reported-measurement: 2.22
- variant-id: "Q10A"
  experimental-readout: "protein stability index"
  reported-measurement: 2.47
- variant-id: "P15W"
  experimental-readout: "protein stability index"
  reported-measurement: 2
- variant-id: "L9Y"
  experimental-readout: "protein stability index"
  reported-measurement: 2.62
- variant-id: "T18M"
  experimental-readout: "protein stability index"
  reported-measurement: 1.81
- variant-id: "L17E"
  experimental-readout: "protein stability index"
  reported-measurement: 3.45
